- experimental protocol: AUC(0 to t) in ICR mouse at 10 mg/kg, iv measured upto 24 hrs by LC-MS/MS analysis
- Type: ADME, organism-based
- Parameters: route intravenous, dose 10 mg/kg, time <=24
- test settings: in vivo
measured parameter: AUC(0-t) at 24 h (ng·h/mL)
// units = ng·h/mL; emit number, no label

## Task Which AUC(0-t) at 24 h value belongs to CC[C@@H](C)[C@H](N)C(=O)N1CCn2cc(-c3ccccc3)nc2[C@@H]1CC1CCCCC1 ?
## Result 2140

---

- experimental protocol: Half life in ICR mouse at 30 mg/kg, po measured upto 24 hrs by LC-MS/MS analysis
- Type: ADME, organism-based
- test settings: in vivo
measured parameter: half-life

## Task Which half-life value belongs to CC[C@@H](C)[C@H](N)C(=O)N1CCn2cc(-c3ccccc3)nc2[C@@H]1CC1CCCCC1 ?
## Result 84.6 min

This collection of values is drawn from ChEMBL document CHEMBL4808167.
